System: Eotaxin-3 (CCL26) release
Assay: Human Whole Blood Eotaxin-3 Assay (IL-4 stimulated)
Format: cell-based
Conditions: Homo sapiens; geometric mean across assay runs and compound batches; EC50 provided for test compounds with >80% Emax
Experimental: This was a human whole blood assay using recombinant human Interleukin 4 to stimulate the blood and measuring the ability of the test compounds to inhibit eotaxin-3 release. The biological activities of the test compounds have been tested in human whole blood stimulated with IL-4 measuring Eotaxin-3 release. The test compounds were added to 384 well clear flat-bottom plate in a 4-fold serial dilution in triplicates using a liquid handler. […]
Entries and their measured EC50 follow.
# output: numeric value plus its unit

CNc1cc(=O)n(-c2ccnc3c2cc([C@@H](C)N2CCC(c4c(F)cc(C(=O)N5CCn6nc(CN7CCC(c8ccc(NC9CCC(=O)NC9=O)cc8F)CC7)cc6C5)cc4F)CC2)n3C)cc1F (some centres unmarked) : 51.7 nM
CNc1ccn(-c2ccnc3c2cc([C@H](C)N2CC=C(c4c(C)cc(C(=O)N5CCn6nc(CN7CCC(c8ccc(NC9CCC(=O)NC9=O)cc8F)CC7)cc6C5)cc4F)CC2)n3C)c(=O)c1 (some centres unmarked) : 0.1 nM
CNc1ccn(-c2ccnc3c2cc([C@H](C)N2CC=C(c4c(C)cc(C(=O)N5CCC(CN6CCN(c7ccc(NC8CCC(=O)NC8=O)c(OC)c7)CC6)CC5)cc4F)CC2)n3C)c(=O)c1 (some centres unmarked) : 12.9 nM
CNc1cc(=O)n(-c2ccnc3c2cc([C@H](C)N2CC=C(c4c(C)cc(C(=O)N5CCn6nc(CN7CCC(c8ccc(N[C@H]9CCC(=O)NC9=O)c(OC)c8)CC7)cc6C5)cc4F)CC2)n3C)cc1F (single isomer, unassigned) : 1.7 nM

Consider the additional molecule presented here.
Prompt line: Form field: EC50 recorded for CNc1ccn(-c2ccnc3c2cc(CN2CCC(c4c(F)cc(C(=O)N5CCn6nc(CN7CCC(c8ccc(N[C@@H]9CCC(=O)NC9=O)cc8F)CC7)cc6C5)cc4F)CC2)n3C)c(=O)c1 (single isomer, unassigned) with Eotaxin-3 (CCL26) release (enter value)
Response line: 0.8 nM

----------
Molecular target: STAT6 (Homo sapiens)
Construct: These cells express endogenous STAT6; host or cells: HeLa LgBiT clone 4.14 (CRISPR knock-in of HiBiT into the endogenous STAT6 gene)
Assay: STAT6 Degrader Assay (HiBiT based, HeLa LgBiT clone 4.14 cells)
Format: cell-based
Settings: geometric mean across assay runs and compound batches; DC50 provided for test compounds with >80% Emax; read-out: STAT6 degradation DC50
Protocol: This was a HiBit based assay. A HeLa cell line stably transfected with a small protein, LgBit (Large Bit) was obtained from Promega. These cells express endogenous STAT6. […] Single cell clones were prepared and the clone 4.14 was selected for the assay based on that clone showing high luminescence, high STAT6 phosphorylation upon stimulation with IL-4, and inhibition of luminescence when cells were treated with STAT6 siRNA. […] The measured DC50 (in nM) was determined.
metric: DC50 (nM)
Please give a number only; it is taken to be in nM.

CNc1ccn(-c2ccnc3c2cc(CN2CCC(c4c(F)cc(C(=O)N5CCC(CN6CCN(c7ccc(NC8CCC(=O)NC8=O)cc7F)CC6)CC5)cc4F)CC2)n3C)c(=O)c1 (stereo not drawn) [Example 2g107] : 25.3

Prompt line: Reported DC50, molecule Cc1cc(C(=O)N2CCn3nc(CN4CCC(c5ccc(NC6CCC(=O)NC6=O)cc5F)CC4)cc3C2)cc(F)c1C1=CCN([C@@H](C)c2cc3c(-n4cc(F)c5c(c4=O)CCN5)ccnc3n2C)CC1 (stereo partly drawn) [Example 2g14] : ____
Response line: 2.2

Prompt line: Would you mind doing CNc1cc(=O)n(-c2ccnc3c2cc([C@H](C)N2CC=C(c4c(C)cc(C(=O)N5CCC(CN6CCN(c7ccc(N[C@@H]8CCC(=O)NC8=O)cc7F)CC6)CC5)cc4F)CC2)n3C)cc1F (single isomer, unassigned) [Example 2g93] as well?
Response line: 7.2

----------
Target: STAT6 (Homo sapiens, UniProt P42226)
Construct: These cells express endogenous STAT6; host or cells: HeLa LgBiT clone 4.14 (CRISPR knock-in of HiBiT into the endogenous STAT6 gene)
Assay: STAT6 Degrader Assay (HiBiT based, HeLa LgBiT clone 4.14 cells)
Format: cell-based
Conditions: geometric mean across assay runs and compound batches; DC50 provided for test compounds with >80% Emax; read-out: STAT6 degradation DC50
hey, just use met if measured DC50 is less than 7 nM, otherwise not met

Example entries begin here.
CNc1cc(=O)n(-c2ccnc3c2cc(CN2CCC(c4c(F)cc(C(=O)N5CCC(CN6CCN(c7ccc(NC8CCC(=O)NC8=O)cc7F)CC6)CC5)cc4F)CC2)n3C)cc1F (stereo not drawn) : not met
CNc1ccn(-c2ccnc3c2cc([C@H](C)N2CCC(c4c(C)cc(C(=O)N5CCC(CN6CCN(c7ccc(N[C@H]8CCC(=O)NC8=O)cc7F)CC6)CC5)cc4F)CC2)n3C)c(=O)c1 (single isomer, unassigned) : not met
CNc1cc(=O)n(-c2ccnc3c2cc(CN2CC=C(c4c(F)cc(C(=O)N5CCC(CN6CCN(c7ccc(NC8CCC(=O)NC8=O)cc7F)CC6)CC5)cc4F)CC2)n3C)cc1F (stereo not drawn) : not met
CNc1cc(=O)n(-c2ccnc3c2cc([C@H](C)N2CC=C(c4c(C)cc(C(=O)N5CCn6nc(CN7CCC(c8ccc(N[C@H]9CCC(=O)NC9=O)c(OC)c8)CC7)cc6C5)cc4F)CC2)n3C)cc1F (single isomer, unassigned) : met

Prompt line: Is DC50 of CNc1ccn(-c2ccnc3c2cc(CN2CCC(c4c(F)cc(C(=O)N5CCC(CN6CCN(c7ccc(N[C@@H]8CCC(=O)NC8=O)cc7F)CC6)CC5)cc4F)CC2)n3C)c(=O)c1 (single isomer, unassigned) strictly below 7 nM?
Response line: not met

Prompt line: Would you mind doing CNc1ccn(-c2ccnc3c2cc(CN2CCC(c4c(C)cc(C(=O)N5CCC(CN6CCN(c7ccc(N[C@@H]8CCC(=O)NC8=O)cc7F)CC6)CC5)cc4F)CC2)n3C)c(=O)c1 (single isomer, unassigned) as well?
Response line: not met

Prompt line: Would you mind doing CNc1ccn(-c2ccnc3c2cc([C@H](C)N2CC=C(c4c(C)cc(C(=O)N5CCn6nc(CN7CCC(c8ccc(NC9CCC(=O)NC9=O)cc8F)CC7)cc6C5)cc4F)CC2)n3C)c(=O)c1 (stereo partly drawn) as well?
Response line: met

Prompt line: Would you mind doing CNc1cc(=O)n(-c2ccnc3c2cc([C@H](C)N2CC=C(c4c(C)cc(C(=O)N5CCn6nc(CN7CCC(c8ccc(N[C@H]9CCC(=O)NC9=O)cc8F)CC7)cc6C5)cc4F)CC2)n3C)cc1F (single isomer, unassigned) as well?
Response line: met

----------
Entries and their measured DC50 follow.
Molecular target: STAT6 (Homo sapiens)
Construct: These cells express endogenous STAT6; host or cells: HeLa LgBiT clone 4.14 (CRISPR knock-in of HiBiT into the endogenous STAT6 gene)
Sequence (P42226 1-847): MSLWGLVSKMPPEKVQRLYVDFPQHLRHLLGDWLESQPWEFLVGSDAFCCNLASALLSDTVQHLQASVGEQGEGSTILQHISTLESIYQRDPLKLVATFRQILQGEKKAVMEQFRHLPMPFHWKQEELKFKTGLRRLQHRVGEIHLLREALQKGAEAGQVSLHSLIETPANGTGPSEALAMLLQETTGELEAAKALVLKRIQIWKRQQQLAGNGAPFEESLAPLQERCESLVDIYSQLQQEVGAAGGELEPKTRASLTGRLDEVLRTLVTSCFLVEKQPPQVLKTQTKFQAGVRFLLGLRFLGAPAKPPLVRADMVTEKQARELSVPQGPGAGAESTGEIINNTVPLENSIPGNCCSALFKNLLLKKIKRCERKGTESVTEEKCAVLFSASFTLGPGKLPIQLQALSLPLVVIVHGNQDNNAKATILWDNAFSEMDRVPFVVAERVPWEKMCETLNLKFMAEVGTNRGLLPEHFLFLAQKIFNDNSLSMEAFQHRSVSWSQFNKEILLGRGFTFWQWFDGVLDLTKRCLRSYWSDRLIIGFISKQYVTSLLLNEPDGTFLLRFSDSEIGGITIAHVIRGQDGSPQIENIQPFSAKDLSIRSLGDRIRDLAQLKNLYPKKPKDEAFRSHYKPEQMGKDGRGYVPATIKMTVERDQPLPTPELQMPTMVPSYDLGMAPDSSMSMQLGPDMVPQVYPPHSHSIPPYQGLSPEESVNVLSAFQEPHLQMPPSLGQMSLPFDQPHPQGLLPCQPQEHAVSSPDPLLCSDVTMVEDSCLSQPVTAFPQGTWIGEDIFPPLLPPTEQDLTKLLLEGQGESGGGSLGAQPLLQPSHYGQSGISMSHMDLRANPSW
Test: STAT6 Degrader Assay (HiBiT based, HeLa LgBiT clone 4.14 cells)
Assay type: cell-based
Details: geometric mean across assay runs and compound batches; DC50 provided for test compounds with >80% Emax; read-out: STAT6 degradation DC50
Please give a number only; it is taken to be in nM.

CNc1cc(=O)n(-c2ccnc3c2cc([C@H](C)N2CC=C(c4c(C)cc(C(=O)N5CCn6nc(CC7(O)CCN(c8ccc(NC9CCC(=O)NC9=O)c(OC)c8)CC7)cc6C5)cc4F)CC2)n3C)cc1F (some centres unmarked) : 10.3

Prompt line: Reported DC50, molecule CNc1ccn(-c2ccnc3c2cc(CN2CCC(c4c(F)cc(C(=O)N5CCC(CN6CCN(c7ccc(N[C@H]8CCC(=O)NC8=O)cc7F)CC6)CC5)cc4F)CC2)n3C)c(=O)c1 (single isomer, unassigned) : ____
Response line: 10.4
